System: Serratia marcescens
PROCEDURE DETAILS: Antibacterial activity against Serratia marcescens ATCC 25419 assessed as zone of inhibition at 100 ug/disk measured after 24 hrs by agar disk-diffusion method
Type: functional
ASSAY SETUP: ATCC 25419, 24 h, read-out: IZ
REPORTED PROPERTY: zone of inhibition at 100 µg/disc
Number first, unit second: that is the form wanted.

MOLECULE	zone of inhibition at 100 µg/disc
C=C1C[C@@H](O)[C@@H](Br)C(C)(C)[C@@]12C=C/C(=C\Br)CC2	4 mm
C=C1C[C@@H](O)[C@@H](Br)C(C)(C)[C@@]12C=C[C@@](O)(C(Br)Br)CC2 [MAILIOHYDRIN]	2 mm
CC1(C)S[C@@H]2[C@H](NC(=O)[C@H](N)c3ccccc3)C(=O)N2[C@H]1C(=O)O [AMPICILLIN]	5 mm
C=C1C[C@@H](O)[C@@H](Br)C(C)(C)[C@@]12C=C[C@](O)(C(Br)Br)CC2	2 mm
C=C1C[C@@H](O)[C@@H](Br)C(C)(C)[C@]12CC[C@](C)(Br)[C@@H](Cl)C2	2 mm

Alright, here's another molecule for you.
*Q* Annotate the molecule CC1=CC(=O)CC(C)(C)[C@@]12C=C/C(=C\Br)CC2 with its measured zone of inhibition at 100 µg/disc.
*A* 8 mm

====

PROCEDURE DETAILS: Antiinflammatory activity in human neutrophils assessed as inhibition of fMLP/CB-induced elastase release at 10 uM using MeO-Suc-Ala-Ala-Pro-Val-p-nitroanilide as elastase substrate preincubated for 5 mins followed by fMLP/CB-induction
Assay type: functional
ASSAY SETUP: Neutrophil
Please provide measured inhibition at 10 µM for the entries that follow.
Numbers only, in %.

Batch request: inhibition at 10 µM per item, same order as input.
1. CC1=C[C@H](O)[C@@H](Br)C(C)(C)[C@@]12C=C[C@](C)(O)CC2
2. C=C1C[C@@H](O)[C@@H](Br)C(C)(C)[C@@]12C=CC(=O)CC2
3. C=C1C[C@@H](O)[C@@H](Br)C(C)(C)[C@@]12C=C[C@](O)(C(Br)Br)CC2
4. C=C1C[C@@H](O)[C@@H](Br)C(C)(C)[C@@]12C=C[C@@](O)(C(Br)Br)CC2 [MAILIOHYDRIN]
5. CC1=CC(=O)CC(C)(C)[C@@]12C=CC(=O)CC2
6. CC[C@H](Nc1ncnc2[nH]cnc12)c1nc2cccc(F)c2c(=O)n1-c1ccccc1
7. C=C1CC[C@]2(C[C@@H]1O)C(=C)C[C@H](O)[C@@H](Br)C2(C)C
8. CC1=CC(=O)CC(C)(C)[C@@]12C=C/C(=C\Br)CC2

*A*
[1, 9, 9, 16, 18, 100, 5, 3]

Batch request: inhibition at 10 µM per item, same order as input.
1. C=C1C[C@H](O)[C@@H](Br)C(C)(C)[C@@]12C=C[C@](C)(O)CC2
2. CC1=CC(=O)CC(C)(C)[C@@]12C=C/C(=C/Br)CC2
3. C=C1C[C@@H](O)[C@@H](Br)C(C)(C)[C@]12CC[C@](C)(Br)[C@@H](Cl)C2
4. CO[C@@]1(C)CC[C@]2(C[C@H]1Br)C(C)=C[C@H](O)CC2(C)C
5. C=C1C[C@@H](O)[C@@H](Br)C(C)(C)[C@@]12C=C/C(=C\Br)CC2
6. C=C1C[C@@H](O)[C@@H](Br)C(C)(C)[C@@]12C=C/C(=C/Br)CC2
7. C=C1C[C@@H](O)[C@@H](Br)C(C)(C)[C@]12CCC(=O)[C@H]1O[C@H]12

*A*
[9, 5, 44, 5, 8, 34, 3]

Batch request: inhibition at 10 µM per item, same order as input.
1. CC1(C)[C@H](Br)[C@H](O)C[C@@]2(CO2)[C@@]12CCC(=O)[C@@H]1O[C@@H]12
2. C=C1C[C@@H](O)[C@@H](Br)C(C)(C)[C@@]12C=C[C@](O)(CO)CC2

*A*
1: 2; 2: 9

Batch request: inhibition at 10 µM per item, same order as input.
1. CC1=C[C@H](O)CC(C)(C)[C@]12CC[C@](C)(Br)[C@H](Cl)C2
2. Cc1ccc([C@]2(C)C[C@H](O)[C@@H](Br)C2(C)C)cc1

*A*
12
7
